- Tested on: MS2 coat protein
- PROTOCOL_NOTES: apparent KD of MS2 coat protein; designed switch direction (-1 OFF switch, 1 ON switch): -1; higher = weaker reporter binding
- RUN_CONDITIONS: input ligand: FMN 200 uM
READOUT_NAME: apparent KD of MS2 coat protein

Give its apparent KD of MS2 coat protein value. Item: CCGCAGCGGUAGGAUAUUAUGACGUCAUGGGCAUAAGAAGGACCGACAUGAGGAUCACCCAUGUUGGGUGCCCG [EX6 C.24] (Eterna round: R97, puzzle: Exclusion 6) 0.0337 µM

Give its apparent KD of MS2 coat protein value. Item: AAAUUAGCAAGUAGGUCCGACAUGAGGAUCACCCAUGUAAUCUGAAAUUACGCUGCAUGAAAGUGCGCUCGUCUUAG [Sensor-V1 #10] (Eterna round: R97, puzzle: Sensor, turn-off variant 1) 0.111 µM

Give its apparent KD of MS2 coat protein value. Item: CGCCUGUUAGGAUAUUAGUAGUAGUCAGAAUAGACUAUUACUGAGAAGGAACAUGAGGAUCACCCAUGUUGGCG [Eli x4 4.13] (Eterna round: R97, puzzle: Exclusion 4) 0.0199 µM
